target.or.test.system: T1, human LILRB4 (human, UniProt Q8NHJ6 22-448)
T1 construct: whole, on cells; also called hLILRB4
assay.explanation: FACS, 293F-hLILRB4 cells
Response field label: string, one of Yes (Max MFI strictly below 40000 MFI) or No.

binder	class.label
ch27-G5-E9-B8 (antibody, V domains shown) VH: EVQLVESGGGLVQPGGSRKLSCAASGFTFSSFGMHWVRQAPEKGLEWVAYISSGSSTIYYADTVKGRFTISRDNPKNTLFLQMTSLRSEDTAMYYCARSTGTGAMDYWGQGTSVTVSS VL: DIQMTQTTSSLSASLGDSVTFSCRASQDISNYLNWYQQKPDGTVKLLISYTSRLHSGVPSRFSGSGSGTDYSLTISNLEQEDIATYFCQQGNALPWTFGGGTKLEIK	No
ch27-D11-C2-A10 (antibody, V domains shown) VH: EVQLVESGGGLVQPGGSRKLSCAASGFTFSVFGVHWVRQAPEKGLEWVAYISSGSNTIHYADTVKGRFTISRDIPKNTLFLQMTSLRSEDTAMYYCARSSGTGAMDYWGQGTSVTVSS VL: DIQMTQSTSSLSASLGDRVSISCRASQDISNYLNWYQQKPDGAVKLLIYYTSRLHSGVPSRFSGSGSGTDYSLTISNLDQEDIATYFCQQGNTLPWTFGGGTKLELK	No
ch4-E6-E4-B12 (antibody, V domains shown) VH: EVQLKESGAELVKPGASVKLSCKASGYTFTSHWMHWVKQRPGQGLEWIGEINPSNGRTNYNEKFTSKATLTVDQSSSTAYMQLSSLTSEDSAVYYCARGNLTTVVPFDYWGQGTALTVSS VL: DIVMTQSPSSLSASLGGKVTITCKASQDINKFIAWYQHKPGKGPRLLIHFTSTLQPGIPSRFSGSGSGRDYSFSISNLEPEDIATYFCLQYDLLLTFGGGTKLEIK	No
ch42-C8-A12-F3-D11 (antibody, V domains shown) VH: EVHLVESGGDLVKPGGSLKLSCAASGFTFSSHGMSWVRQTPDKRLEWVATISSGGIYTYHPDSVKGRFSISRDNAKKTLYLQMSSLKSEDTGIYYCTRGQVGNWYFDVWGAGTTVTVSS VL: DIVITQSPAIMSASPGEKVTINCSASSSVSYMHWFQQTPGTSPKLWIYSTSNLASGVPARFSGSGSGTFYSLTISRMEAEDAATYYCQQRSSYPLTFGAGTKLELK	No
ch27-F11-E10-G10 (antibody, V domains shown) VH: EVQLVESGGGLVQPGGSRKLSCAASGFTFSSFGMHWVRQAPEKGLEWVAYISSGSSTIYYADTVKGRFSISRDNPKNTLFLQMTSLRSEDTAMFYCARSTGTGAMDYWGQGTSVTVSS VL: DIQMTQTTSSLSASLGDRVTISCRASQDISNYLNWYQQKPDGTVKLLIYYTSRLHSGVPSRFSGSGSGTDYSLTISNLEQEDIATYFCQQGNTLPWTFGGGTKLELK	No
ch26-H9-B9-B7 (antibody, V domains shown) VH: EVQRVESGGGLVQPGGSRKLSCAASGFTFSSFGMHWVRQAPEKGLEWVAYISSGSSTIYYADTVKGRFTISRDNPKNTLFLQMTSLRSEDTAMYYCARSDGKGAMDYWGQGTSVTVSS VL: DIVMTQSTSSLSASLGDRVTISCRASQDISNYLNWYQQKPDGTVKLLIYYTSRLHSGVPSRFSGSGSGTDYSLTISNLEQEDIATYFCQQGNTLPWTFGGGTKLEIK	No
ch48-E11-H7-B5 (antibody, V domains shown) VH: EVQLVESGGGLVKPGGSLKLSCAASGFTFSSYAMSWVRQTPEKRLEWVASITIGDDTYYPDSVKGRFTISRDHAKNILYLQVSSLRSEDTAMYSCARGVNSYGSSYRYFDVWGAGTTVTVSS VL: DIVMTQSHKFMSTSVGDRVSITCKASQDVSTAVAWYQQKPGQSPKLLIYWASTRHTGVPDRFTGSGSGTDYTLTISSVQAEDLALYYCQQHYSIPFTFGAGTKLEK	No
ch2-H1-D7-E5-D5 (antibody, V domains shown) VH: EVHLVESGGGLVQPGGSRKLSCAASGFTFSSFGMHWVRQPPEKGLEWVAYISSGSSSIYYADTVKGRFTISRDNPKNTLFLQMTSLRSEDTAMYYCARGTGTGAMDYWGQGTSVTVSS VL: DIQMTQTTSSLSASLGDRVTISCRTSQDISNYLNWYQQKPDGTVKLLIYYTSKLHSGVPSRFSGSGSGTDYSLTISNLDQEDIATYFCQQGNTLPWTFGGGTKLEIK	Yes
ch25-E7-A10-H6 (antibody, V domains shown) VH: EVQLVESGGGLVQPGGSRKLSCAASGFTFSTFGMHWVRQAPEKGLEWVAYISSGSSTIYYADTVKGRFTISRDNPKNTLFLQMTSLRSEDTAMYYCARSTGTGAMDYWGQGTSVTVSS VL: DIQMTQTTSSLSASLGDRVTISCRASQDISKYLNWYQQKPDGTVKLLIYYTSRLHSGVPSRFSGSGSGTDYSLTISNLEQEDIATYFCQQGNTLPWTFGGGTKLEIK	No
ch44-F10-B6-D4 (antibody, V domains shown) VH: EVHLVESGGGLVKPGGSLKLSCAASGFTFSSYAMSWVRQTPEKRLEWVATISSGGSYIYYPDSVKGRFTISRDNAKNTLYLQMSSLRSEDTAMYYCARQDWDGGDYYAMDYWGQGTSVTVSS VL: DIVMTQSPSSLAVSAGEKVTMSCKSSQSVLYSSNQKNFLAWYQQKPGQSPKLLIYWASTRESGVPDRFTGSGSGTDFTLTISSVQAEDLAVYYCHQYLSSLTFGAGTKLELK	Yes

Data credit: patent US20250361295A1
